# TGT: xanthine oxidase (XO) (Bos taurus, UniProt P80457)
# Sequence (P80457 whole entry): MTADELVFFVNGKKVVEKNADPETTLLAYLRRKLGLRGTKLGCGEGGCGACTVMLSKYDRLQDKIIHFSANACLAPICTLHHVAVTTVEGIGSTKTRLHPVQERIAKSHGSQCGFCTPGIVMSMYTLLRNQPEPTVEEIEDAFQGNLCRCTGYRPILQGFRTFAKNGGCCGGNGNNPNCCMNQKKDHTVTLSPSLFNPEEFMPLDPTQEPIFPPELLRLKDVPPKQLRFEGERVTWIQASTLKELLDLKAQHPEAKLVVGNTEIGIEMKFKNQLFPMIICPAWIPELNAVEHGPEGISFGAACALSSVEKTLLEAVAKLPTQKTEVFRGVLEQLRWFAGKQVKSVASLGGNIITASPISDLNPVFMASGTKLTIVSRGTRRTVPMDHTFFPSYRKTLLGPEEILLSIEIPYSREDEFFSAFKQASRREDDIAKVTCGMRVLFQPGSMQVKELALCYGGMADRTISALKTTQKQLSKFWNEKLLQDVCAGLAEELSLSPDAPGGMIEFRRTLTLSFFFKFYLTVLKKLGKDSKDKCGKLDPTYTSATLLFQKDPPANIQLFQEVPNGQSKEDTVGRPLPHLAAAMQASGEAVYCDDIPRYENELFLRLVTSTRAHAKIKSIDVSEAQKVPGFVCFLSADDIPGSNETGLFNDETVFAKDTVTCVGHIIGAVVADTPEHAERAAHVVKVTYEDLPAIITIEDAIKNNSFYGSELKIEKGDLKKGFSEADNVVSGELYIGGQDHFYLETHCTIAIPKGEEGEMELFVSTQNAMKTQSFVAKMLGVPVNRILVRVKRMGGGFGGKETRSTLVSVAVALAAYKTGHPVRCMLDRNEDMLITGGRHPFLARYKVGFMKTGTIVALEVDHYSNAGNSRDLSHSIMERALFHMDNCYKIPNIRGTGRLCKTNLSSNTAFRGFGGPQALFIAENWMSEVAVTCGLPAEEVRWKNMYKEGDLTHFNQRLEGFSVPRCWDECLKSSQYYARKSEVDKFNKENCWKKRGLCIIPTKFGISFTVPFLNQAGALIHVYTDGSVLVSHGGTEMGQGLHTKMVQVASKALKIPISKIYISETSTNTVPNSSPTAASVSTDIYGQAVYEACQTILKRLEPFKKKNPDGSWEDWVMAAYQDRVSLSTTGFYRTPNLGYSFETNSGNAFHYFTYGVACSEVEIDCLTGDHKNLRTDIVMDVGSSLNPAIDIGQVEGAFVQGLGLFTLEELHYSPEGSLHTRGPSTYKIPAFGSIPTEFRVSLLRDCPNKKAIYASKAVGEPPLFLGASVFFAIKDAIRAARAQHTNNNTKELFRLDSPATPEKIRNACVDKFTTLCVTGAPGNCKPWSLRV
PROPERTY NAME: pIC50
Notebook: values listed as pIC50 are -log10 of the concentration (mol/L).

See these solved cases before continuing.
# COMPOUND, TGT, pIC50
data = [
    ("O=C(O)/C=C/c1ccc(O)c(O)c1", "xanthine oxidase (XO) (Bos taurus, UniProt P80457)", 3.92),
    ("COC(=O)[C@@H](Cc1ccc(O)c(O)c1)OC(=O)/C=C/c1ccc(O)c(O)c1 [Methyl rosmarinate, methyl rosmarinate]", "xanthine oxidase (XO) (Bos taurus, UniProt P80457)", 4.58),
]

Note: attention shifts to another entry.
Input line: Please give the measured pIC50 for this compound: C=COC(=O)/C=C/c1ccc(O)c(O)c1 [Vinyl caffeate, vinyl caffeate]
Output line: 4.51

----------
# TGT: xanthine oxidase (XO) (Bos taurus, UniProt P80457)
# TEST NAME: Assay of XO inhibitory modes of action (enzyme kinetics, Lineweaver-Burk plots)
# EXPERIMENTAL SETUP: Lineweaver-Burk plots
PROPERTY NAME: Mode of Inhibition

See these solved cases before continuing.
# MOLECULE, Mode of Inhibition
records = [
    ("O=C(/C=C/c1ccc(O)c(O)c1)O[C@H](Cc1ccc(O)c(O)c1)C(=O)O", "Competitive"),
    ("COC(=O)[C@@H](Cc1ccc(O)c(O)c1)OC(=O)/C=C/c1ccc(O)c(O)c1 [Methyl rosmarinate, methyl rosmarinate]", "Competitive"),
    ("Oc1ncnc2[nH]ncc12 [Allopurinol, reference compound]", "Competitive"),
    ("C=COC(=O)/C=C/c1ccc(O)c(O)c1 [Vinyl caffeate, vinyl caffeate]", "Competitive"),
]

Note: attention shifts to another entry.
Input line: Please give the measured Mode of Inhibition for this molecule: "O=c1cc(-c2ccc(O)cc2)oc2cc(O)cc(O)c12"
Output line: Mixed
